// provenance: patent US10947242B2

Property: Emax; scope: individual compounds
# test.target: Human recombinant PDE2A (hPDE2A) (Homo sapiens)
# Construct: His tag (inferred from metal chelate purification); made in house; host or cells: Sf9 insect cells (baculovirus)
# Sequence (O00408 whole entry): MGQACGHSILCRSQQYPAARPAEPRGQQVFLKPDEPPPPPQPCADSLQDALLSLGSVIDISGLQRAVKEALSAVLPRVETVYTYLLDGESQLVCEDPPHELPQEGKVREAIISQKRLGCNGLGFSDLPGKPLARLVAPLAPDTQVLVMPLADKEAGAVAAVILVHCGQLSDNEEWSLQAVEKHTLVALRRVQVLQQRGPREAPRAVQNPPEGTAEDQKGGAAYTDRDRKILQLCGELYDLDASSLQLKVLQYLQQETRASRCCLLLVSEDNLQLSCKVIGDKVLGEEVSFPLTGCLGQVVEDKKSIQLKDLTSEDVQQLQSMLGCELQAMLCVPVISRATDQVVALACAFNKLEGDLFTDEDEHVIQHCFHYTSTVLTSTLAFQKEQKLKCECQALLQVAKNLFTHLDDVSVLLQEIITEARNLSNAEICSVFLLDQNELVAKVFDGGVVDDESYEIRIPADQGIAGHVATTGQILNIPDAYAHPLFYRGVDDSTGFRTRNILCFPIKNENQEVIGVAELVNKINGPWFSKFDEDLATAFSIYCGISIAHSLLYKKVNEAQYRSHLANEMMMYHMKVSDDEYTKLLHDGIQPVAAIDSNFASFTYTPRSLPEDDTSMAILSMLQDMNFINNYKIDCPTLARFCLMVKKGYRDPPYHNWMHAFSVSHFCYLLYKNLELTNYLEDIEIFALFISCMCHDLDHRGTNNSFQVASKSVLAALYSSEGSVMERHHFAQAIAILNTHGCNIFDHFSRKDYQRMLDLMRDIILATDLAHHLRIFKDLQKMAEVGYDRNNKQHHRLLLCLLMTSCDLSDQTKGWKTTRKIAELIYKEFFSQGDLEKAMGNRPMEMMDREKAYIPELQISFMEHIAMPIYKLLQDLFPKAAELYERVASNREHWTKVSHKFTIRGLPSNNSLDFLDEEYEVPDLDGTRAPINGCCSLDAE
# method.description: In vitro assay PDE2A (SPA, 3H-cGMP hydrolysis)
# Type: biochemical
# condition.description: read-out: hPDE2A Emax
measurement.label: Emax (%)

>>> result("Cc1cc([C@@H]2CN(C(=O)c3ccc4occc4c3)CC[C@H]2C)n2ncnc2n1 [Compound 6]")
99
>>> result("Cc1cc2ccc(C(=O)N3[C@H]4CC[C@H](c5cc(C(F)F)nc6ncnn56)[C@@H]3CC4)cn2c1 [Compound 307]")
99
>>> result("COc1cc(C(=O)N2CC[C@@H](C)[C@H](c3cc(C)nc4ncnn34)C2)cc(Cl)n1 [Compound 22]")
100
>>> result("Cc1nc(C(=O)N2CC[C@@H](C)[C@H](c3cc(C(F)F)nc4ncnn34)C2)c(C(F)(F)F)o1 [Compound 161]")
98
>>> result("C[C@@H]1CCN(C(=O)c2cn(C)c3ccccc23)C[C@H]1c1cc(C(F)F)nc2ncnn12 [Compound 328]")
100
>>> result("O=C(c1ccnc2ccccc12)N1[C@H]2CC[C@H](c3cc(C(F)F)nc4ncnn34)[C@@H]1CC2 [Compound 317]")
99
>>> result("Cc1ccc(C(=O)N2[C@H]3CC[C@H](c4cc(C(F)F)nc5ncnn45)[C@@H]2CC3)cc1Cl [Compound 369]")
100
